Tested on: Heart
ASSAY PROTOCOL: Cardioprotective activity in Langendorff perfused rat heart assessed as recovery of rate pressure product at 10 uM treated 10 mins before global ischemia challenge for 30 mins followed by 30 mins of reperfusion
Assay type: functional
Labelling field: enter 1.0 if recorded Activity is less than 30%. Enter 0.0 if it equals or exceeds that cut-off.

CS(=O)(=O)O.CS(=O)(=O)O.Cc1ccc(C)c(-c2nc(C(=O)N=C(N)N)c(C)[nH]2)c1 : 0.0

Incoming: Is the reported Activity for COc1ccc(F)cc1-c1nc(C(=O)N=C(N)N)c(C)[nH]1.CS(=O)(=O)O.CS(=O)(=O)O strictly below 30%?
Outgoing: 1.0

Incoming: Is the reported Activity for CS(=O)(=O)O.CS(=O)(=O)O.Cc1[nH]c(-c2ccccc2Cl)nc1C(=O)N=C(N)N strictly below 30%?
Outgoing: 0.0

Incoming: Is the reported Activity for CS(=O)(=O)O.Cc1oc(-c2cc(Cl)ccc2Cl)nc1C(=O)N=C(N)N strictly below 30%?
Outgoing: 1.0

Incoming: Is the reported Activity for CS(=O)(=O)O.Cc1ccc(C)c(-c2nc(C(=O)N=C(N)N)c(C)o2)c1 strictly below 30%?
Outgoing: 0.0

Incoming: Is the reported Activity for CS(=O)(=O)O.Cc1[nH]c(-c2cc(Cl)cc(Cl)c2)nc1C(=O)N=C(N)N strictly below 30%?
Outgoing: 1.0

Incoming: Is the reported Activity for CS(=O)(=O)O.Cc1oc(-c2cc(Cl)cc(Cl)c2)nc1C(=O)N=C(N)N strictly below 30%?
Outgoing: 1.0

Incoming: Is the reported Activity for CC(C)c1ccc(C(=O)N=C(N)N)cc1S(C)(=O)=O.CS(=O)(=O)O [CARIPORIDE MESYLATE] strictly below 30%?
Outgoing: 0.0

Incoming: Is the reported Activity for CS(=O)(=O)O.CS(=O)(=O)O.Cc1[nH]c(-c2cc(Cl)ccc2Cl)nc1C(=O)N=C(N)N strictly below 30%?
Outgoing: 0.0

Incoming: Is the reported Activity for COc1ccc(Cl)cc1-c1nc(C(=O)N=C(N)N)c(C)[nH]1.CS(=O)(=O)O.CS(=O)(=O)O strictly below 30%?
Outgoing: 0.0

----------
Entries and their measured IC50 follow.
TEST SYSTEM: Sodium/hydrogen exchanger 1 (Homo sapiens, UniProt P19634)
Sequence (P19634 whole entry): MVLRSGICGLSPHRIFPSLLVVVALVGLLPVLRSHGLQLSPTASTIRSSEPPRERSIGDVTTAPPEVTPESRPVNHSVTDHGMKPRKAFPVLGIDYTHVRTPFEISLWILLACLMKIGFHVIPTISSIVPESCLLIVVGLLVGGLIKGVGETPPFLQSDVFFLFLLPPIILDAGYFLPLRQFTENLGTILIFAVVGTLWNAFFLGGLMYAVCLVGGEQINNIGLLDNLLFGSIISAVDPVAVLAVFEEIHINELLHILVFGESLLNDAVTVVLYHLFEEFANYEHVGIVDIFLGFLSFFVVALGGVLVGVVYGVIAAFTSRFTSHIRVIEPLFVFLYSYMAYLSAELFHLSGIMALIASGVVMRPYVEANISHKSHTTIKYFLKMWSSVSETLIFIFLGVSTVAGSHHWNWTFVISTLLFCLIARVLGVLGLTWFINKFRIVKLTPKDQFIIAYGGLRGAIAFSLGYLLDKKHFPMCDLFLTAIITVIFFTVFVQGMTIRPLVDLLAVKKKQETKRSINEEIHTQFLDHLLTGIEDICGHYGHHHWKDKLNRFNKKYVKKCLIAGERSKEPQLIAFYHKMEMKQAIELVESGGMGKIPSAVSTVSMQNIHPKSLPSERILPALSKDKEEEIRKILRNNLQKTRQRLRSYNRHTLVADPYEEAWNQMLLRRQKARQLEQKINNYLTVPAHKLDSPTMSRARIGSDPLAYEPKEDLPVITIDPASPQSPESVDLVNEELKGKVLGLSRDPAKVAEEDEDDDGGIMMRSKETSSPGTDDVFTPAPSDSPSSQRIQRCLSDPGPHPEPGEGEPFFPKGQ
ASSAY PROTOCOL: Inhibition of human NHE1 expressed in PS120 cells assessed as imposed acidosis
// note: answer is a bare numeric in µM

Cc1[nH]c(-c2cccc(F)c2F)nc1C(=O)N=C(N)N : 6.6

Continue with the compound presented below.
Incoming: Could you tell me which IC50 is on file for Cc1[nH]c(-c2cccc(Cl)c2)nc1C(=O)N=C(N)N ?
Outgoing: 4.5

----------
System: Rattus norvegicus
ASSAY PROTOCOL: Cardioprotective activity in Langendorff perfused rat myocardial infarction model assessed as ratio of myocardial infarction size to area at risk at 0.1 mg/kg, iv administered 5 mins before onset ischemia challenge followed by 90 mins reperfusion
Type: functional, Myocardium
Think of 40% as a floor: if Activity stands on it or above, it is Yes; beneath it, No.

Some solved entries appear below for comparison.
COc1ccc(Cl)cc1-c1nc(C(=O)N=C(N)N)c(C)[nH]1.CS(=O)(=O)O.CS(=O)(=O)O : No
CS(=O)(=O)O.CS(=O)(=O)O.Cc1ccc(C)c(-c2nc(C(=O)N=C(N)N)c(C)[nH]2)c1 : Yes
CS(=O)(=O)O.CS(=O)(=O)O.Cc1[nH]c(-c2ccccc2Cl)nc1C(=O)N=C(N)N : Yes

# evaluate next
Incoming: Dear colleague, could you confirm whether CS(=O)(=O)O.Cc1ccc(C)c(-c2nc(C(=O)N=C(N)N)c(C)o2)c1 has Activity at or above 40%?
Outgoing: Yes
